The values you see were collected from patent US20180339041A1.

- target.under.test: T1, C-terminally FLAG-tagged human Gas6 recombinant protein (hGas6-F) (human, UniProt Q14393 31-678, gamma-carboxylated glutamic acid residues in the Gla domain (producer cells co-express rat VKOR and human GGCX); positions not given)
- T1 construct: also called human Gas6-F; human Gas6 protein
- T1 sequence: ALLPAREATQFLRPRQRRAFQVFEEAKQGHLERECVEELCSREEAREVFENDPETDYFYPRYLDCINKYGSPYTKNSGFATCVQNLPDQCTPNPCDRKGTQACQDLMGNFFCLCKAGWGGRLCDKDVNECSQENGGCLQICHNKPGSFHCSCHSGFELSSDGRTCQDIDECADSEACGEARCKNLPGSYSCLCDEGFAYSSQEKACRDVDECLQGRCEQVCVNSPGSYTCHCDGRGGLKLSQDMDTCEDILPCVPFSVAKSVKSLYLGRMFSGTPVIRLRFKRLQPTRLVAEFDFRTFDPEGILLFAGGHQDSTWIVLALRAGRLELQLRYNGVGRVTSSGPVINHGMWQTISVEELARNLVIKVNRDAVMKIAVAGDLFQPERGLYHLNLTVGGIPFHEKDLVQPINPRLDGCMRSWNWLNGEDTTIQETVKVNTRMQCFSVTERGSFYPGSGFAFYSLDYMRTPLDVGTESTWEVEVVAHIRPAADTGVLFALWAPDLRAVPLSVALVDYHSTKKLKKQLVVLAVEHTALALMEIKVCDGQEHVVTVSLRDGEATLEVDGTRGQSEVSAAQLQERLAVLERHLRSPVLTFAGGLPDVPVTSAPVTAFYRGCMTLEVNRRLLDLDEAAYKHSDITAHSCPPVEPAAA
- method.description: SPR Biacore T100, captured antibody, Gas6 analyte, first test
pKd: −log10 of the molar value.
measurement.label: pKd

Return reported pKd values for all items listed beneath this line.
1. hzKM5320 LV5HV6 antibody (antibody, V domains shown, Humanized; variant human IgG4 constant region (EU S228P, L235E, R409K), human kappa; also called A-25) VH: QVQLVQSGPELKKPGASVKISCKASGYTFTNYGMNWVKQAPGQGLKWMGWINTETGEPTYSDDFKGRFVFSLDTSVSTAYLQISSLKAEDTATYFCAREDGYYGTLDYWGQGTTVTVSS VL: DIVMTQSPDSLAVSLGERVTINCKASQSVSNDVAWYQQKPGQSPKVLIYYASNRYTGVPDRFSGSGSGTDFTFTISSVQAEDVAVYFCQQDYSSPWTFGQGTKLEIK
2. hzKM5321 LV6HV5 antibody (antibody, V domains shown, Humanized; variant human IgG4 constant region (EU S228P, L235E, R409K), human kappa; also called B-29; LV6HV5) VH: QIHLVQSGSELKKPGASVKISCKASGYTFTNYGMNWVKQAPGQGLKWMGWINTNTGEPTYTEEFKGRFVFSLDTSVTTAYLQISTLKAEDTAVYFCARDEGWFVYWGQGTLITVSS VL: ETTLTQSPSSLSVSTGDRVTITCITSTDIDDDMNWYQQKPGKPPKLLISEGNTLRPGVPSRFSSSGSGTDFTLTISSTQPEDFADYYCLQTDSVPLTFGQGTKVEIK
3. hzKM5320 LV2aHV8 antibody (antibody, V domains shown, Humanized; variant human IgG4 constant region (EU S228P, L235E, R409K), human kappa; also called A-13) VH: QIQLVQSGPELKKPGASVKISCKASGYTFTNYGMNWVKQAPGQGLKWMGWINTETGEPTYSDDFKGRFVFSLDTSVTTAYLQISSLKAEDTATYFCAREDGYYGTLDYWGQGTTVTVSS VL: DVVMTQSPDSLAVSLGERVTINCKASQSVSNDVAWYQQKPGQSPKLLIYYASNRYTGVPDRFSGSGSGTDFTLTISSVQAEDVAVYFCQQDYSSPWTFGQGTKLEIK

Output:
1: > 8.74; 2: > 8.58; 3: > 7.99
